PROTOCOL SUMMARY: Cytotoxicity against human HuH7 cells assessed as release of lactate dehydrogenase
Format: cell-based, Huh-7
COND: Homo sapiens, Huh-7
pIC50: −log10 of the molar value.
Known pIC50 of a selection of compounds
QUANTITY KIND: pIC50

COMPOUND STRING	QUANTITY KIND	ENDPOINT RESULT
C/C=C/C[C@@H](C)[C@@H](O)[C@H]1C(=O)N[C@@H](CC)C(=O)N(C)CC(=O)N(C)[C@@H](CC(C)C)C(=O)N[C@@H](C(C)C)C(=O)N(C)[C@@H](CC(C)C)C(=O)N[C@@H](C)C(=O)N[C@H](CCN(CC)CC)C(=O)N(C)[C@@H](CC(C)C)C(=O)N(C)[C@@H](CC(C)C)C(=O)N(C)[C@@H](C(C)C)C(=O)N1C	pIC50	5.83
C/C=C/C[C@@H](C)[C@@H](O)[C@H]1C(=O)N[C@@H](CC)C(=O)N(C)CC(=O)N(C)[C@@H](CC(C)C)C(=O)N[C@@H](C(C)C)C(=O)N(C)[C@@H](CC(C)C)C(=O)N[C@@H](C)C(=O)N[C@H](CCN)C(=O)N(C)[C@@H](CC(C)C)C(=O)N(C)[C@@H](CC(C)C)C(=O)N(C)[C@@H](C(C)C)C(=O)N1C	pIC50	5.28
C/C=C/C[C@@H](C)[C@@H](O)[C@H]1C(=O)N[C@@H](CC)C(=O)N(C)CC(=O)N(C)[C@@H](CC(C)C)C(=O)N[C@@H](C(C)C)C(=O)N(C)[C@@H](CC(C)C)C(=O)N[C@@H](C)C(=O)N[C@H](CC#N)C(=O)N(C)[C@@H](CC(C)C)C(=O)N(C)[C@@H](CC(C)C)C(=O)N(C)[C@@H](C(C)C)C(=O)N1C	pIC50	5.55

----------
Reported values: pIC50 for UniProt P62937, one per item.
Sequence (P62937 whole entry): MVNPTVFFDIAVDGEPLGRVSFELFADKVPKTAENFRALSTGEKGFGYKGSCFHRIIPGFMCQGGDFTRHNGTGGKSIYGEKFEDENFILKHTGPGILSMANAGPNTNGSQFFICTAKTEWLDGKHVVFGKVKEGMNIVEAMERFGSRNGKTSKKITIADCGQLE
pIC50: −log10 of the molar value.

COMPOUND STRING	pIC50
C/C=C/C[C@@H](C)[C@@H](O)[C@H]1C(=O)N[C@@H](CC)C(=O)N(C)CC(=O)N(C)[C@@H](CC(C)C)C(=O)N[C@@H](C(C)C)C(=O)N(C)[C@@H](CC(C)C)C(=O)N[C@@H](C)C(=O)N[C@H](CCCCNC(=O)C(C)(C)C)C(=O)N(C)[C@@H](CC(C)C)C(=O)N(C)[C@@H](CC(C)C)C(=O)N(C)[C@@H](C(C)C)C(=O)N1C	7.64
C/C=C/C[C@@H](C)[C@@H](O)[C@H]1C(=O)N[C@@H](CC)C(=O)N(C)CC(=O)N(C)[C@@H](CC(C)C)C(=O)N[C@@H](C(C)C)C(=O)N(C)[C@@H](CC(C)C)C(=O)N[C@@H](C)C(=O)N[C@H](CCCNC(=O)C(C)(C)C)C(=O)N(C)[C@@H](CC(C)C)C(=O)N(C)[C@@H](CC(C)C)C(=O)N(C)[C@@H](C(C)C)C(=O)N1C	7.57
C/C=C/C[C@@H](C)[C@@H](O)[C@H]1C(=O)N[C@@H](CC)C(=O)N(C)CC(=O)N(C)[C@@H](CC(C)C)C(=O)N[C@@H](C(C)C)C(=O)N(C)[C@@H](CC(C)C)C(=O)N[C@@H](C)C(=O)N[C@H](CCCCN(C)C)C(=O)N(C)[C@@H](CC(C)C)C(=O)N(C)[C@@H](CC(C)C)C(=O)N(C)[C@@H](C(C)C)C(=O)N1C	7.85
